# Protocol: Apparent permeability across apical to basolateral side in human Caco-2 cells incubated for 180 mins by LC/MS/MS analysis
# Format: ADME, cell-based
# Test conditions: Caco-2
Endpoint: Papp A→B at 3 h (×10⁻⁶ cm/s)
Entry rule: numbers only, all in ×10⁻⁶ cm/s.

Some compounds with known Papp A→B at 3 h results, for comparison:
[[record]]
entry_smiles = "CONC(=O)Nc1ccc(-c2sc3c(c2CN(C)C)c(=O)n(-c2ccc(OC)nn2)c(=O)n3Cc2c(F)cccc2C(F)(F)F)cc1"
unit_info = "×10⁻⁶ cm/s"
reported_result = 0.011

[[record]]
entry_smiles = "C[C@H]1O[C@@H](O[C@H]2[C@@H](O)C[C@H](O[C@H]3[C@@H](O)C[C@H](O[C@H]4CC[C@@]5(C)[C@H](CC[C@@H]6[C@@H]5C[C@@H](O)[C@]5(C)[C@@H](C7=CC(=O)OC7)CC[C@]65O)C4)O[C@@H]3C)O[C@@H]2C)C[C@H](O)[C@@H]1O"
unit_info = "×10⁻⁶ cm/s"
reported_result = 0.013


Field: next compound
Which measured Papp A→B at 3 h value corresponds to CONC(=O)Nc1ccc(-c2sc3c(c2CN(C)C)c(=O)n(-c2ccc(OC(F)F)nn2)c(=O)n3Cc2c(F)cccc2F)cc1 ? 0.019

###

# Protocol: Drug uptake in Sprague-Dawley rat hypothalamus and pituitary at 12 mg/kg, po measured after 4 hrs by LC-MS/MS analysis
# Type: ADME, organism-based, Hypothalamus/Pituitary gland
# Test conditions: read-out: Drug uptake
Endpoint: concentration at 4 h (ng/g)
Entry rule: numbers only, all in ng/g.

Which measured concentration at 4 h value corresponds to CONC(=O)Nc1ccc(-c2sc3c(c2CN(C)C)c(=O)n(-c2ccc(OC)nn2)c(=O)n3Cc2c(F)cccc2F)cc1 ? 9.2

###

# Protocol: Drug uptake in Sprague-Dawley rat hypothalamus and pituitary at 12 mg/kg, po measured after 12 hrs by LC-MS/MS analysis
# Format: ADME, organism-based, Hypothalamus/Pituitary gland
# Test conditions: read-out: Drug uptake
Endpoint: concentration at 12 h

Which measured concentration at 12 h value corresponds to CONC(=O)Nc1ccc(-c2sc3c(c2CN(C)C)c(=O)n(-c2ccc(OC)nn2)c(=O)n3Cc2c(F)cccc2F)cc1 ? 3.2 ng/g

###

Listed here: items and their measured CLint scaled at […].
# Protocol: Intrinsic clearance in rat liver microsomes incubated for 15 mins in presence of NADPH by LC-MS analysis
# Type: ADME, Microsome
# Test conditions: read-out: CLH
Entry rule: numbers only, all in mL/min/kg.

[[record]]
entry_smiles = "CONC(=O)Nc1ccc(-c2sc3c(c2CN(C)C)c(=O)n(-c2cccc(OC)c2F)c(=O)n3Cc2c(F)cccc2F)cc1"
endpoint = "CLint scaled at […]"
reported_result = 211

[[record]]
entry_smiles = "COc1ccc(-n2c(=O)c3c(CN(C)C)c(-c4ccc(NC(=O)NOCC(F)F)cc4)sc3n(Cc3c(F)cccc3F)c2=O)nn1"
endpoint = "CLint scaled at […]"
reported_result = 45.4


Field: next molecule
Which measured CLint scaled at […] value corresponds to COc1ccc(-n2c(=O)c3c(CN(C)C)c(-c4ccc(NC(=O)NOCC(F)(F)F)cc4)sc3n(Cc3c(F)cccc3F)c2=O)nn1 ? 38.9

###

# Protocol: Clearance in Sprague-Dawley rat at 1 mg/kg, iv measured for 24 hrs by LC/MS analysis
# Type: ADME, organism-based
# Test conditions: in vivo
Listed here: items and their measured clearance.
Entry rule: numbers only, all in mL/min/kg.

Some compounds with known clearance results, for comparison:
[[record]]
compound = "CONC(=O)Nc1ccc(-c2sc3c(c2CN(C)CCOC(F)(F)F)c(=O)n(-c2ccc(OC)nn2)c(=O)n3Cc2c(F)cccc2F)cc1"
endpoint = "clearance"
unit_info = "mL/min/kg"
reported_result = 17.5

[[record]]
compound = "COCCN(C)Cc1c(-c2ccc(NC(=O)NOC)cc2)sc2c1c(=O)n(-c1ccc(OC)nn1)c(=O)n2Cc1c(F)cccc1F"
endpoint = "clearance"
unit_info = "mL/min/kg"
reported_result = 38.7


Field: next compound
Which measured clearance value corresponds to CONC(=O)Nc1ccc(-c2sc3c(c2CN(C)C)c(=O)n(-c2ccc(OC)nn2)c(=O)n3Cc2c(F)cccc2F)cc1 [RELUGOLIX] ? 78.3

###

Listed here: items and their measured Papp A→B at 3 h.
# Protocol: Apparent permeability across apical to basolateral side in human Caco-2 cells incubated for 180 mins by LC/MS/MS analysis
# Type: ADME, cell-based
# Test conditions: Caco-2
Entry rule: numbers only, all in nm/s.

Some compounds with known Papp A→B at 3 h results, for comparison:
[[record]]
entry_smiles = "COCCN(C)Cc1c(-c2ccc(NC(=O)NOC)cc2)sc2c1c(=O)n(-c1ccc(OC)nn1)c(=O)n2Cc1c(F)cccc1F"
endpoint = "Papp A→B at 3 h"
reported_result = 0.31

[[record]]
entry_smiles = "CCc1ccc(-n2c(=O)c3c(CN(C)C)c(-c4ccc(NC(=O)NOC)cc4)sc3n(Cc3c(F)cccc3F)c2=O)nn1"
endpoint = "Papp A→B at 3 h"
reported_result = 0.13

[[record]]
entry_smiles = "CONC(=O)Nc1ccc(-c2sc3c(c2CN(C)CCOC(F)(F)F)c(=O)n(-c2ccc(OC)nn2)c(=O)n3Cc2c(F)cccc2F)cc1"
endpoint = "Papp A→B at 3 h"
reported_result = 9.84


Field: next compound
Which measured Papp A→B at 3 h value corresponds to CNc1ccc(-n2c(=O)c3c(CN(C)C)c(-c4ccc(NC(=O)NOC)cc4)sc3n(Cc3c(F)cccc3F)c2=O)nn1 ? 0.5

###

# Protocol: Oral bioavailability in Sprague-Dawley rat at 12 mg/kg measured for 24 hrs by LC/MS analysis
# Format: ADME, organism-based
# Test conditions: in vivo
Endpoint: bioavailability (%)
Entry rule: numbers only, all in %.

Some compounds with known bioavailability results, for comparison:
[[record]]
compound = "COCCN(C)Cc1c(-c2ccc(NC(=O)NOC)cc2)sc2c1c(=O)n(-c1ccc(OC)nn1)c(=O)n2Cc1c(F)cccc1F"
reported_result = 10.9

[[record]]
compound = "CONC(=O)Nc1ccc(-c2sc3c(c2CN(C)CCOC(F)(F)F)c(=O)n(-c2ccc(OC)nn2)c(=O)n3Cc2c(F)cccc2F)cc1"
reported_result = 44.7


Field: next compound
Which measured bioavailability value corresponds to CONC(=O)Nc1ccc(-c2sc3c(c2CN(C)C)c(=O)n(-c2ccc(OC)nn2)c(=O)n3Cc2c(F)cccc2F)cc1 [RELUGOLIX] ? 5.7

###

# Protocol: Drug uptake in Sprague-Dawley rat heart at 12 mg/kg, po measured after 1 hr by LC-MS/MS analysis
# Type: ADME, organism-based
# Test conditions: read-out: Drug uptake
Endpoint: concentration at 1 h (ng/g)
Entry rule: numbers only, all in ng/g.

Which measured concentration at 1 h value corresponds to CONC(=O)Nc1ccc(-c2sc3c(c2CN(C)C)c(=O)n(-c2ccc(OC)nn2)c(=O)n3Cc2c(F)cccc2F)cc1 ? 429

###

# Protocol: Apparent permeability across basolateral to apical side in human Caco-2 cells incubated for 180 mins by LC/MS/MS analysis
# Assay type: ADME, cell-based
# Test conditions: Caco-2
Classify by measured Papp B→A at 3 h: MET if it is equal to or exceeds 10 ×10⁻⁶ cm/s, NOT MET if it is smaller.

The following compounds have reported results that may help.
[[record]]
compound = "C[C@H]1O[C@@H](O[C@H]2[C@@H](O)C[C@H](O[C@H]3[C@@H](O)C[C@H](O[C@H]4CC[C@@]5(C)[C@H](CC[C@@H]6[C@@H]5C[C@@H](O)[C@]5(C)[C@@H](C7=CC(=O)OC7)CC[C@]65O)C4)O[C@@H]3C)O[C@@H]2C)C[C@H](O)[C@@H]1O [DIGOXIN]"
class = "MET"

[[record]]
compound = "CONC(=O)Nc1ccc(-c2sc3c(c2CN(C)C)c(=O)n(-c2ccc(OC)nn2)c(=O)n3Cc2c(F)cccc2C(F)(F)F)cc1"
class = "NOT MET"

[[record]]
compound = "CONC(=O)Nc1ccc(-c2sc3c(c2CN(C)C)c(=O)n(-c2ccc(OC(F)F)nn2)c(=O)n3Cc2c(F)cccc2F)cc1"
class = "MET"


We now examine a further compound.
Hello, I need to know if CNc1ccc(-n2c(=O)c3c(CN(C)C)c(-c4ccc(NC(=O)NOC)cc4)sc3n(Cc3c(F)cccc3F)c2=O)nn1 has measured Papp B→A at 3 h not below 10 ×10⁻⁶ cm/s. Thanks! NOT MET

###

Listed here: items and their measured CLint scaled at […].
# Protocol: Intrinsic clearance in rat liver microsomes incubated for 15 mins in presence of NADPH by LC-MS analysis
# Assay type: ADME, Microsome
# Test conditions: read-out: CLH
Entry rule: numbers only, all in mL/min/kg.

Some molecules with known CLint scaled at […] results, for comparison:
[[record]]
entry_smiles = "CONC(=O)Nc1ccc(-c2sc3c(c2CN(C)C)c(=O)n(-c2ccc(OC)nn2)c(=O)n3Cc2c(F)cccc2F)cc1"
unit_info = "mL/min/kg"
reported_result = 29.5

[[record]]
entry_smiles = "CONC(=O)Nc1ccc(-c2sc3c(c2CN(C)CCOC(F)(F)F)c(=O)n(-c2ccc(OC)nn2)c(=O)n3Cc2c(F)cccc2F)cc1"
unit_info = "mL/min/kg"
reported_result = 37.1

[[record]]
entry_smiles = "CCc1ccc(-n2c(=O)c3c(CN(C)C)c(-c4ccc(NC(=O)NOC)cc4)sc3n(Cc3c(F)cccc3F)c2=O)nn1"
unit_info = "mL/min/kg"
reported_result = 31.3

[[record]]
entry_smiles = "CONC(=O)Nc1ccc(-c2sc3c(c2CN(C)C)c(=O)n(-c2ccc(OC(F)F)nn2)c(=O)n3Cc2c(F)cccc2F)cc1"
unit_info = "mL/min/kg"
reported_result = 16.6

[[record]]
entry_smiles = "COCCN(C)Cc1c(-c2ccc(NC(=O)NOC)cc2)sc2c1c(=O)n(-c1ccc(OC)nn1)c(=O)n2Cc1c(F)cccc1F"
unit_info = "mL/min/kg"
reported_result = 15.8


Field: next molecule
Which measured CLint scaled at […] value corresponds to CNc1ccc(-n2c(=O)c3c(CN(C)C)c(-c4ccc(NC(=O)NOC)cc4)sc3n(Cc3c(F)cccc3F)c2=O)nn1 ? 34.9

Sourced from ChEMBL document CHEMBL5346862
